The values you see were collected from ChEMBL document CHEMBL1135193.

Molecular target: Endothelin-converting enzyme 1 (Homo sapiens, UniProt P42892)
Sequence (P42892 whole entry): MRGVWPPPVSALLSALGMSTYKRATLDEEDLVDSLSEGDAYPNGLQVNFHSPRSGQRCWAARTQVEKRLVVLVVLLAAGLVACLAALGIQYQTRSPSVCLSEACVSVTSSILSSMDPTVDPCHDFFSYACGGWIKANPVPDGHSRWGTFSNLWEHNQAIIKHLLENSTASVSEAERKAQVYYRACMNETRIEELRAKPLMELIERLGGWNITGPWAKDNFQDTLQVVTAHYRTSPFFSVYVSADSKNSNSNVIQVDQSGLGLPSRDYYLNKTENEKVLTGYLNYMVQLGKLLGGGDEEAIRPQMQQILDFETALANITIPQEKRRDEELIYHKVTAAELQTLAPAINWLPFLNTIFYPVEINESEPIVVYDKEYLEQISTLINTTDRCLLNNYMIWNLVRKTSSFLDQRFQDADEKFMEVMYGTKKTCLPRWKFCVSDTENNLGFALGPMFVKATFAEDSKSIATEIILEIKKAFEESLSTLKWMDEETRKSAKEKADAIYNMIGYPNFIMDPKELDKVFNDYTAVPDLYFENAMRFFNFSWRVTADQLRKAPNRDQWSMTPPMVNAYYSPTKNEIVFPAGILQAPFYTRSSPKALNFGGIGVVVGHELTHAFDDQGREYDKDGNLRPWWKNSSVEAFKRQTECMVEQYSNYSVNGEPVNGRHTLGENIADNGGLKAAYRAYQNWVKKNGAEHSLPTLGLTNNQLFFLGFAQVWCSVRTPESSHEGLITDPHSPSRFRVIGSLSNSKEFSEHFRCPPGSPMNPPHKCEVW
Catalogue of Ki values
Remember to follow the number with its unit.

Some compounds with known Ki results, for comparison:
# compound, Ki
measured = [
    ("COc1ccc2c(c1)CC[C@@H]2[C@@H](CS)C(=O)N[C@@H](Cc1c[nH]c2ccccc12)C(=O)O", "10 nM"),
    ("COc1ccc2c(c1)CCC2C(CS)C(=O)NC(Cc1c[nH]c2ccccc12)C(=O)O (stereo not drawn)", "22 nM"),
]

Below: the item to evaluate.
Looking up COc1ccc2c(c1)CC[C@H]2[C@H](CS)C(=O)N[C@@H](Cc1c[nH]c2ccccc12)C(=O)O , I found its Ki recorded as 1460 nM
